Target: RAC-gamma serine/threonine-protein kinase (Homo sapiens)
Sequence (Q9Y243 whole entry): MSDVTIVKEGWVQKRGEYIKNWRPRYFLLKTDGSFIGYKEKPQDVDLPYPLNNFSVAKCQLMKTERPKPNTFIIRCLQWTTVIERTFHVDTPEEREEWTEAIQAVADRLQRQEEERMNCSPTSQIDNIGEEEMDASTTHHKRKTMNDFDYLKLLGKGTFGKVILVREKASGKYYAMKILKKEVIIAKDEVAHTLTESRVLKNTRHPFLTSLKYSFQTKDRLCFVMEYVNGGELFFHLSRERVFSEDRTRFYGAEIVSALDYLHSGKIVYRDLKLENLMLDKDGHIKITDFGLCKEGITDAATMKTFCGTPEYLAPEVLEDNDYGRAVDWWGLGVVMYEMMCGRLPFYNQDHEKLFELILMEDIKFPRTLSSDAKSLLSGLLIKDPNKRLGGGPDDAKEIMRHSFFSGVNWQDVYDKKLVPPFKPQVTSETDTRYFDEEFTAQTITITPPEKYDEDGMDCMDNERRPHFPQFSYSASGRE
Experiment: Inhibition of AKT3 in presence of 0.2 uM ATP
pIC50: −log10 of the molar value.
Rule: pIC50 under 6 gives n, otherwise y.

Molecule	Assayed system	Group
CCCNc1nccc(-c2ccc(C(=O)NCCc3ccc(Cl)cc3Cl)s2)n1	RAC-gamma serine/threonine-protein kinase (Homo sapiens)	n
CNc1nccc(-c2ccc(S(=O)(=O)NCCc3ccc(Cl)cc3Cl)s2)n1	RAC-gamma serine/threonine-protein kinase (Homo sapiens)	n
CNc1nccc(-c2ccc(CNCCc3ccc(Cl)cc3Cl)s2)n1	RAC-gamma serine/threonine-protein kinase (Homo sapiens)	n
CNc1nccc(-c2ccc(C(=O)NCCc3ccc(Br)cc3)s2)n1	RAC-gamma serine/threonine-protein kinase (Homo sapiens)	n
CN(C)c1nccc(-c2ccc(C(=O)NCCc3ccc(Cl)cc3Cl)s2)n1	RAC-gamma serine/threonine-protein kinase (Homo sapiens)	n
CNc1nccc(-c2ccc(C(=O)NCCc3ccc(OC)cc3)s2)n1	RAC-gamma serine/threonine-protein kinase (Homo sapiens)	n
CNc1nccc(-c2ccc(C(=O)NC[C@@H](N)c3ccccc3)s2)n1	RAC-gamma serine/threonine-protein kinase (Homo sapiens)	n
CNc1nccc(-c2ccc(C(=O)N[C@@H](Cc3ccc(Cl)cc3Cl)C(=O)OC)s2)n1	RAC-gamma serine/threonine-protein kinase (Homo sapiens)	n
CNc1nccc(-c2ccc(C(=O)N[C@@H](CN)Cc3ccc(Cl)cc3Cl)s2)n1	RAC-gamma serine/threonine-protein kinase (Homo sapiens)	y
CNc1nccc(-c2ccc(C(=O)NCC(c3ccccc3)c3ccccc3)s2)n1	RAC-gamma serine/threonine-protein kinase (Homo sapiens)	n
CNc1nccc(-c2ccc(C(=O)NCCc3ccccc3)s2)n1	RAC-gamma serine/threonine-protein kinase (Homo sapiens)	n
Nc1nccc(-c2ccc(C(=O)NCCc3ccc(Cl)cc3Cl)s2)n1	RAC-gamma serine/threonine-protein kinase (Homo sapiens)	y
CNc1nccc(-c2ccc(C(=O)NCCc3ccccc3Cl)s2)n1	RAC-gamma serine/threonine-protein kinase (Homo sapiens)	n
CNc1nccc(-c2ccc(C(=O)NCc3ccc(F)cc3)s2)n1	RAC-gamma serine/threonine-protein kinase (Homo sapiens)	n
CNc1nccc(-c2ccc(C(=O)NCCc3ccc(F)cc3)s2)n1	RAC-gamma serine/threonine-protein kinase (Homo sapiens)	n
CNc1nccc(-c2ccc(C(=O)NCCc3cccc(Cl)c3)s2)n1	RAC-gamma serine/threonine-protein kinase (Homo sapiens)	n
CNc1nccc(-c2ccc(NC(=O)CCc3ccc(F)cc3)s2)n1	RAC-gamma serine/threonine-protein kinase (Homo sapiens)	n
CNc1nccc(-c2ccc(C(=O)NC(CN)Cc3ccc(Cl)cc3Cl)s2)n1 (stereo not given)	RAC-gamma serine/threonine-protein kinase (Homo sapiens)	y

Hey, just so you know, these numbers are from ChEMBL document CHEMBL1146851.
